# Test system: Receptor-interacting serine/threonine-protein kinase 2 (Homo sapiens, UniProt O43353); also: in the data inactive means no Kd found up to 30 µM
# Sequence (O43353 whole entry): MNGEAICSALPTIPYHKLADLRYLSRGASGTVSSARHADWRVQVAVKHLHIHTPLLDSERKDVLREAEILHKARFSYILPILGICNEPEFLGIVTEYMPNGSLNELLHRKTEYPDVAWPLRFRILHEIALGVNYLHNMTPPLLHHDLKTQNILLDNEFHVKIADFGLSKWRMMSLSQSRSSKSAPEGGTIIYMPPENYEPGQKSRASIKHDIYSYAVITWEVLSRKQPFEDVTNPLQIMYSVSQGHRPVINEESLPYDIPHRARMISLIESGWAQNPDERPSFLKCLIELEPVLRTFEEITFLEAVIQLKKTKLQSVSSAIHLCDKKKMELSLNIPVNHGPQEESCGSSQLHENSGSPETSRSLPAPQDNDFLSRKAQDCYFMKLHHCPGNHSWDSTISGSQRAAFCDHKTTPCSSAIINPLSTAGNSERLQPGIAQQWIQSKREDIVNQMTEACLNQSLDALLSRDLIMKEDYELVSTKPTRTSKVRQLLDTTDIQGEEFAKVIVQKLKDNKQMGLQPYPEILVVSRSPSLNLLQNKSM
Active and inactive are the calls of the source.
Labels: Y = active, N = inactive

| Test smiles | Assigned category |
| --- | --- |
| CCOc1ccn(-c2ccc(F)cc2)c(=O)c1C(=O)Nc1ccc(Oc2ccnc(N)c2Cl)c(F)c1 | N |
| CCN(CCCOc1ccc2c(Nc3cc(CC(=O)Nc4cccc(F)c4)n[nH]3)ncnc2c1)CCOP(=O)(O)O | Y |
| COc1cccc2cc(-c3nc([C@H]4CC[C@H](C(=O)O)CC4)n4ncnc(N)c34)[nH]c12 | Y |
| Cn1c(=O)n(-c2ccc(C(C)(C)C#N)cc2)c2c3cc(-c4cnc5ccccc5c4)ccc3ncc21 | N |

----------
# Test system: BMP-2-inducible protein kinase (Homo sapiens); also: in the data inactive means no Kd found up to 30 µM
# Sequence (Q9NSY1 whole entry): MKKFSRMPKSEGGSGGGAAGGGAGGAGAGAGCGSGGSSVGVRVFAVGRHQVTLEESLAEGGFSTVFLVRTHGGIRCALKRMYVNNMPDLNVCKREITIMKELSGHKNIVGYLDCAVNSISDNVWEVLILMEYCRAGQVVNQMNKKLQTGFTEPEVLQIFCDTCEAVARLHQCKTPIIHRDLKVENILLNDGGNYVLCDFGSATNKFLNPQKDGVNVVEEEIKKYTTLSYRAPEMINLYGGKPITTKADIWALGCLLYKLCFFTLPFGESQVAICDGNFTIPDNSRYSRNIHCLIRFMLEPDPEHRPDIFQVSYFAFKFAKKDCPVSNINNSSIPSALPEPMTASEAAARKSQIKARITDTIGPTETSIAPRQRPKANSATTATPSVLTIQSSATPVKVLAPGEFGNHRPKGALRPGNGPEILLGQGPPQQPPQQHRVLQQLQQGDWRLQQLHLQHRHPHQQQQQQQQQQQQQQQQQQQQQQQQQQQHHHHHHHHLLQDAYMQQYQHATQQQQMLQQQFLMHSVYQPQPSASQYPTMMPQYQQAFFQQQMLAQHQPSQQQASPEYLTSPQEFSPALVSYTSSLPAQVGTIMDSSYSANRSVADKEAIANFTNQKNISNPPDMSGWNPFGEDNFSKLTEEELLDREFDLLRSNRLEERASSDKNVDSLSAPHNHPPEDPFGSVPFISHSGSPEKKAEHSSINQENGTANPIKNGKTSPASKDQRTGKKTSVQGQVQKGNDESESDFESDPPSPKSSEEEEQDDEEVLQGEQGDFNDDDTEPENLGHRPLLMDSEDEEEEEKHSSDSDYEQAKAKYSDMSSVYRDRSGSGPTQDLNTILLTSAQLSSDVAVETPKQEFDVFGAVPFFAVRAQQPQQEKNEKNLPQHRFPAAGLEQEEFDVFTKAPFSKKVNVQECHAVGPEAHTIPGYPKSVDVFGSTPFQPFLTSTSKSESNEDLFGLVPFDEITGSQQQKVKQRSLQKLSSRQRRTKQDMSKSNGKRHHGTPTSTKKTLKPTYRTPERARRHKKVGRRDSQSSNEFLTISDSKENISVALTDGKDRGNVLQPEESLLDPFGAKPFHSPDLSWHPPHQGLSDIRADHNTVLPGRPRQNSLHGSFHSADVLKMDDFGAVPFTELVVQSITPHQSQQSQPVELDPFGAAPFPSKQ
Active and inactive are the calls of the source.
Labels: 1 (yes) (active), 0 (no) (inactive)

| Compound | Assigned category |
| --- | --- |
| CCOc1ccn(-c2ccc(F)cc2)c(=O)c1C(=O)Nc1ccc(Oc2ccnc(N)c2Cl)c(F)c1 | 0 (no) |
| C=CC(=O)Nc1cccc(Nc2nc(Nc3ccc(N4CCN(C(C)=O)CC4)cc3OC)ncc2C(F)(F)F)c1 | 0 (no) |
| CCN(CCCOc1ccc2c(Nc3cc(CC(=O)Nc4cccc(F)c4)n[nH]3)ncnc2c1)CCOP(=O)(O)O | 0 (no) |
| Cc1cc(Nc2nc(N[C@@H](C)c3ncc(F)cn3)ncc2Cl)n[nH]1 | 0 (no) |
| C=CC(=O)Nc1cc(Nc2nccc(-c3cn(C)c4ccccc34)n2)c(OC)cc1N(C)CCN(C)C | 0 (no) |
| Cc1cc(-c2cc(OC(=O)c3ccccc3)ccc2Cl)cc2nnc(Nc3ccc(OCCN4CCCC4)cc3)nc12 | 0 (no) |
| CC[C@@](C)(Nc1ccnc(-c2c[nH]c3ncccc23)n1)C(=O)NCC(F)(F)F | 1 (yes) |
| COc1cc(F)c(F)c(Nc2ccc(I)cc2F)c1NS(=O)(=O)C1(C[C@H](O)CO)CC1 | 0 (no) |
| COc1cc2ncnc(Nc3ccc(F)c(Cl)c3)c2cc1NC(=O)/C=C/CN1CCCCC1 [DACOMITINIB ANHYDROUS] | 0 (no) |
| O=c1[nH]c([C@@H]2CCCN2)nc2c1oc1ccc(Cl)cc12 | 0 (no) |
| NC[C@@](O)(c1ccc(Cl)cc1)c1ccc(-c2cn[nH]c2)cc1 | 0 (no) |
| O=C(Nc1ccc(OC(F)(F)F)cc1)c1sccc1NCc1ccnc2ccccc12 | 0 (no) |
| C[C@]1(O)C[C@@H](c2nc(-c3ccc4ccc(-c5ccccc5)nc4c3)c3c(N)nccn32)C1 | 0 (no) |
| C=CCN(/C=C1/C(=O)O[C@H](COC)[C@@]2(C)C1=C(O)C(=O)C1=C2[C@H](OC(C)=O)C[C@]2(C)C(=O)CC[C@@H]12)CC=C | 0 (no) |
| CCN1CCN(Cc2ccc(Nc3ncc(F)c(-c4cc(F)c5nc(C)n(C(C)C)c5c4)n3)nc2)CC1 | 1 (yes) |
| COc1cc2ncnc(Nc3ccc(O)cc3)c2cc1OC | 0 (no) |
| O=C(NC[C@H](O)CO)c1ccncc1Nc1ccc(I)cc1F | 0 (no) |
| COc1cccc2cc(-c3nc([C@H]4CC[C@H](C(=O)O)CC4)n4ncnc(N)c34)[nH]c12 | 0 (no) |
| CCc1nc(C(N)=O)c(Nc2ccc(N3CCC(N4CCN(C)CC4)CC3)c(OC)c2)nc1NC1CCOCC1 | 1 (yes) |
| O=C(NOC[C@H](O)CO)c1ccc(F)c(F)c1Nc1ccc(I)cc1F | 0 (no) |
| COCCN1CCN(Cc2ccc(-c3n[nH]c4c3C(=O)c3c(NC(=O)NN5CCOCC5)cccc3-4)cc2)CC1 | 1 (yes) |

----------
# Test system: Receptor-type tyrosine-protein kinase FLT3 (Homo sapiens, UniProt P36888); also: in the data inactive means no Kd found up to 30 µM
# Sequence (P36888 whole entry): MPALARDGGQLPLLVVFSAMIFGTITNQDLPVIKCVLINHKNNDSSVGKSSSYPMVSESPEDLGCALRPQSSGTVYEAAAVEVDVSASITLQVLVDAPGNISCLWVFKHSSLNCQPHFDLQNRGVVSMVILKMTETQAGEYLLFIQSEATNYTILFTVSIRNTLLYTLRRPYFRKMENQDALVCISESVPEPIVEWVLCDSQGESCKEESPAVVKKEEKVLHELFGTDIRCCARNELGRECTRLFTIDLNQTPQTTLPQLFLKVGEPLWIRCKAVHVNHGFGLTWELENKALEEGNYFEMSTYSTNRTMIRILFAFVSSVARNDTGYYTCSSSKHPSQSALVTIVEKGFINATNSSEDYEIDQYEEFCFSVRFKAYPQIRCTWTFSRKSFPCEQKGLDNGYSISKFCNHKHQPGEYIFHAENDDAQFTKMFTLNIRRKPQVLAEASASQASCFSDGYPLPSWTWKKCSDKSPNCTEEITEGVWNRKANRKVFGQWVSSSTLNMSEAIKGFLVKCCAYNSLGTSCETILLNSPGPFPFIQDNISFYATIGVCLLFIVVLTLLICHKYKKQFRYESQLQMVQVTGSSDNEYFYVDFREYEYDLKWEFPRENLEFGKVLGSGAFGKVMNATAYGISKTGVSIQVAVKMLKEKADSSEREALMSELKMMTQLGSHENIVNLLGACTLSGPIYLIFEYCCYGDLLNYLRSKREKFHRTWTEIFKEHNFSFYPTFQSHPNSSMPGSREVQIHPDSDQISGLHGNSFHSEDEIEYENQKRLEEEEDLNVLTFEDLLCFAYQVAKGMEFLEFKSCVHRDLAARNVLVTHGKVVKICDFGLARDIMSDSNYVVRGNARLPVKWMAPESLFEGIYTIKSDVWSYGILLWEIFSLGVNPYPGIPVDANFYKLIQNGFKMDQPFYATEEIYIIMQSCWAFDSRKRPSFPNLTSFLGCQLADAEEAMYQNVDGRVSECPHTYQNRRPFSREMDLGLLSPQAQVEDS
Activity calls are given as the source filed them.
Labels: TRUE for active, FALSE for inactive

| Compound | Assigned category |
| --- | --- |
| COc1cc(Nc2ncc(F)c(Nc3ccc4c(n3)N(COP(=O)(O)O)C(=O)C(C)(C)O4)n2)cc(OC)c1OC | TRUE |
| CCc1cc2c(cc1N1CCC(N3CCOCC3)CC1)C(C)(C)c1[nH]c3cc(C#N)ccc3c1C2=O | FALSE |
| Cc1cc(C(=O)Nc2cc(Oc3ccc4nc(NC(=O)C5CC5)cn4n3)ccc2C)n(C)n1 | FALSE |
| O=C(NOC[C@H](O)CO)c1ccc(F)c(F)c1Nc1ccc(I)cc1F | FALSE |
| Cc1ccc(C(=O)Nc2ccc(Oc3cc4cnn(C)c4cc3-c3cn[nH]c3)c(F)c2)c(=O)n1-c1ccc(F)cc1 | TRUE |
| c1cc(OCCN2CCCCC2)cc(-c2n[nH]c3ccc(-c4nc[nH]n4)cc23)c1 | FALSE |
| COc1cc2ncnc(Nc3ccc(F)c(Cl)c3)c2cc1NC(=O)/C=C/CN1CCCCC1 [DACOMITINIB ANHYDROUS] | FALSE |
| CN1CCN(c2nc(C3=C(c4c[nH]c5ccccc45)C(=O)NC3=O)c3ccccc3n2)CC1 | FALSE |
| C[C@@H]1COC(Nc2ccc3ncnc(Nc4ccc(OCc5nccs5)c(Cl)c4)c3c2)=N1 | FALSE |
| Cc1c(NC(=O)OC[C@@H]2COCCN2)cn2ncnc(Nc3ccc4c(cnn4Cc4cccc(F)c4)c3)c12 | FALSE |
| O=S(=O)(c1cccc2c(O)nccc12)N1CCCNCC1 [HYDROXYFASUDIL] | FALSE |

----------
# Test system: Serine/threonine-protein kinase SIK2 (Homo sapiens); also: in the data inactive means no Kd found up to 30 µM
# Sequence (Q9H0K1 whole entry): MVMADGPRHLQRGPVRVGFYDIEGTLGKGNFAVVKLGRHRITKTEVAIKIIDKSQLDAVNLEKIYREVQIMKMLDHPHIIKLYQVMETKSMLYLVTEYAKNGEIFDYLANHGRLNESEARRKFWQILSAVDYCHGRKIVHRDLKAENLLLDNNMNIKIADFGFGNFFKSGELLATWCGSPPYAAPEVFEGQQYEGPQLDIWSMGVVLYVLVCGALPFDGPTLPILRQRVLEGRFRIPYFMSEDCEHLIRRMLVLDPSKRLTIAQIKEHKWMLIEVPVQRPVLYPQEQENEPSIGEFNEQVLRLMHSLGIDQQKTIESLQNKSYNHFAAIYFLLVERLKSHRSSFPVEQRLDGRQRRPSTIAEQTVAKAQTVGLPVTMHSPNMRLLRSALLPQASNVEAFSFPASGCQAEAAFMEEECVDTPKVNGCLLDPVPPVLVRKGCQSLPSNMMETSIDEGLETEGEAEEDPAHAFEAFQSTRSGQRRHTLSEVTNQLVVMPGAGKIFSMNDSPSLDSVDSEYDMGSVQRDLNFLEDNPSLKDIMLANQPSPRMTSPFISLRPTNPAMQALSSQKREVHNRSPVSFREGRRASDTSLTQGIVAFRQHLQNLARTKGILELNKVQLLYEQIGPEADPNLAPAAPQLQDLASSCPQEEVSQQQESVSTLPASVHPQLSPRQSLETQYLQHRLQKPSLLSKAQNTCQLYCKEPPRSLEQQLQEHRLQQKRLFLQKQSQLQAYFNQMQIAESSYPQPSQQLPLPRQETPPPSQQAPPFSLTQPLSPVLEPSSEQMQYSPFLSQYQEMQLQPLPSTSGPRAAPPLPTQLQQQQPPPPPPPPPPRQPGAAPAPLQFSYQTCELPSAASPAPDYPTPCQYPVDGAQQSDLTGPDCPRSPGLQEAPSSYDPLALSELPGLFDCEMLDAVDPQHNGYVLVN
The source made the active and inactive calls.
Labels: 1 for active, -1 for inactive

| Compound | Assigned category |
| --- | --- |
| Cc1c(Cn2c(C)nc3c(C(=O)O)cc(N4CCOCC4)cc32)cccc1C(F)(F)F [GSK-2636771] | -1 |
| Cc1cc(Nc2nc(N[C@@H](C)c3ncc(F)cn3)ncc2Cl)n[nH]1 [AZD-1480] | -1 |
| COCCN1CCN(Cc2ccc(-c3n[nH]c4c3C(=O)c3c(NC(=O)NN5CCOCC5)cccc3-4)cc2)CC1 [RGB-286638] | 1 |
| Cn1c(=O)n(-c2ccc(C(C)(C)C#N)cc2)c2c3cc(-c4cnc5ccccc5c4)ccc3ncc21 [DACTOLISIB] | -1 |
| COc1cc2ncnc(Nc3ccc(F)c(Cl)c3)c2cc1NC(=O)/C=C/CN1CCCCC1 [DACOMITINIB ANHYDROUS] | -1 |
| COc1cccc2cc(-c3nc([C@H]4CC[C@H](C(=O)O)CC4)n4ncnc(N)c34)[nH]c12 [OSI-027] | -1 |
| CN1CCN(c2nc(C3=C(c4c[nH]c5ccccc45)C(=O)NC3=O)c3ccccc3n2)CC1 [SOTRASTAURIN] | -1 |

----------
# Test system: MAP/microtubule affinity-regulating kinase 3 (Homo sapiens, UniProt P27448); also: in the data inactive means no Kd found up to 30 µM
# Sequence (P27448 whole entry): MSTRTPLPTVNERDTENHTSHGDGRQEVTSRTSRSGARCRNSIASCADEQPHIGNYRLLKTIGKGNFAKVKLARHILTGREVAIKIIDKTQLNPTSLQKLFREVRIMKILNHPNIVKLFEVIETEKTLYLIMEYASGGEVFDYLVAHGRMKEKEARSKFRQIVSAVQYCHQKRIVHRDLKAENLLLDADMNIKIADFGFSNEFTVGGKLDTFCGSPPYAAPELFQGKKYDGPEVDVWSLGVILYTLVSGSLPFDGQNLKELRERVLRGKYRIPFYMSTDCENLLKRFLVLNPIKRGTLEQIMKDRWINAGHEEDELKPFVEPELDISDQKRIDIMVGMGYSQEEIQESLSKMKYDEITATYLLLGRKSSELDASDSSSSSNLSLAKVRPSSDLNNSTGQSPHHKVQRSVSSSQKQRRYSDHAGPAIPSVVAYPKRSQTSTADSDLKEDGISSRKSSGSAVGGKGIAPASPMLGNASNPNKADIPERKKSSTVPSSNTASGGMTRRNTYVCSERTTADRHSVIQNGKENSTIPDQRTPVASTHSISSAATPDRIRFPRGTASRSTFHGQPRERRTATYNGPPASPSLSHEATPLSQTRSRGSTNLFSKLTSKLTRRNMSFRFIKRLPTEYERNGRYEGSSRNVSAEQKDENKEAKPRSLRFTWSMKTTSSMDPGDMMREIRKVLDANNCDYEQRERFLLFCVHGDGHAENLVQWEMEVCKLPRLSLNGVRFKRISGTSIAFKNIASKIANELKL
Calls of active or inactive are those of the source.
Labels: active, inactive

| Molecule | Assigned category |
| --- | --- |
| CC(C)(O)CC(=O)NCCn1ccc2ncnc(Nc3ccc(Oc4cccc(C(F)(F)F)c4)c(Cl)c3)c21 [TAK-285] | inactive |
| O=C(NC[C@H](O)CO)c1ccncc1Nc1ccc(I)cc1F [PIMASERTIB] | inactive |
| C=CC(=O)Nc1cccc(Nc2nc(Nc3ccc(N4CCN(C(C)=O)CC4)cc3OC)ncc2C(F)(F)F)c1 [ROCILETINIB] | inactive |
| CC1(COc2ccc3c(c2)ncn3-c2ccc3cccc(N4CCC(N)CC4)c3n2)COC1 [CRENOLANIB] | active |
| O=S(=O)(c1cccc2cnccc12)N1CCCNCC1 [FASUDIL] | inactive |
| COc1cccc(Nc2ncnn3ccc(CN4CC[C@@H](N)[C@H](O)C4)c23)c1 [BMS-690514] | active |
| O=S(=O)(c1cccc2c(O)nccc12)N1CCCNCC1 [HYDROXYFASUDIL] | inactive |

----------
# Test system: Serine/threonine-protein kinase D3 (Homo sapiens, UniProt O94806); also: in the data inactive means no Kd found up to 30 µM
# Sequence (O94806 whole entry): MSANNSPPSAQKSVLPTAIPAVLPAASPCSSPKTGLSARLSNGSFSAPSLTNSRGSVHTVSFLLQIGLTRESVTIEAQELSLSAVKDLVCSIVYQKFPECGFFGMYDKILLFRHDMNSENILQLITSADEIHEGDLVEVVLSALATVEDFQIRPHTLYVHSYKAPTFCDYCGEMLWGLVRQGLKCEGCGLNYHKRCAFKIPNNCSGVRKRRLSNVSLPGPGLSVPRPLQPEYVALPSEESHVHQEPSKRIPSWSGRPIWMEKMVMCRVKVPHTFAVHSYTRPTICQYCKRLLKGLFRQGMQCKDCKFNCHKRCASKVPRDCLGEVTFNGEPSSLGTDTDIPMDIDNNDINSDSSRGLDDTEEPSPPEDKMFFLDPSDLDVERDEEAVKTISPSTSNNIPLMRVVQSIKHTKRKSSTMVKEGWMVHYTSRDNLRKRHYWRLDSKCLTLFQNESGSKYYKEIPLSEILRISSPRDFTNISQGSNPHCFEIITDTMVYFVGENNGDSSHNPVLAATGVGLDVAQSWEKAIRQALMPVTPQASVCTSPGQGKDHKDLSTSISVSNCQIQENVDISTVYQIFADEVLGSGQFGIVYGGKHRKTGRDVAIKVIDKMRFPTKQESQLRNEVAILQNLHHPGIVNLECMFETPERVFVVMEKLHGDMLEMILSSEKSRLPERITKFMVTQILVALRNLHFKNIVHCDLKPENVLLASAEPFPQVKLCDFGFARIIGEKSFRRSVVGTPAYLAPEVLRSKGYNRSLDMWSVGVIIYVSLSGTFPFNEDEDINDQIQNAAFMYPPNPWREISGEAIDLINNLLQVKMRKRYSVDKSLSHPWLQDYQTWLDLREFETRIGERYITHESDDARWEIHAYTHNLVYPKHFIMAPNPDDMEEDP
Calls of active or inactive are those of the source.
Labels: active, inactive

| Compound | Assigned category |
| --- | --- |
| COc1cc2ncnc(Nc3ccc(F)c(Cl)c3)c2cc1NC(=O)/C=C/CN1CCCCC1 [DACOMITINIB ANHYDROUS] | inactive |
| O=c1[nH]c([C@@H]2CCCN2)nc2c1oc1ccc(Cl)cc12 | inactive |
| O=S(=O)(c1cccc2c(O)nccc12)N1CCCNCC1 [HYDROXYFASUDIL] | inactive |
| O=C(Nc1ccc(OC(F)(F)F)cc1)c1sccc1NCc1ccnc2ccccc12 | inactive |
| O[C@H]1CC[C@H](Nc2ncc3nc(Nc4c(F)cc(F)cc4F)n([C@H]4CCOC4)c3n2)CC1 | inactive |
| CC(C)CC(=O)Nc1[nH]nc2c1CN(C(=O)C1CCN(C)CC1)C2(C)C | active |
| Cn1c(=O)c(F)c(Nc2ccc(I)cc2F)c2c(=O)n(C[C@@H](O)CO)cnc21 | inactive |
